Test system: atopic dermatitis-induced Nc/Nga mouse
Assay: SCORAD clinical skin score, DNFB-induced atopic dermatitis in Nc/Nga mouse
Assay type: in vivo
Parameters: key: 0 = no symptom, 1 = mild, 2 = moderate, 3 = severe
Details: Mouse 2; DNFB Nc/Nga; 0.1% topical day 15-21; graded per Example 4
Overview of reported Mouse 2 Edema across a group of compounds:

> print(dat)
                      structuresmilesstring  result
1  CCCCCCCCCCCCCCCCCC(=O)N[C@@H](Cc1c[nH]c2ccccc12)C(=O)O       2
2  CCCCCCCCCCCCCCCC(=O)N[C@@H](Cc1c[nH]c2ccccc12)C(=O)O       1

Quick check: Mouse 2 Edema on atopic dermatitis-induced Nc/Nga mouse, item CCCC(=O)N[C@@H](Cc1c[nH]c2ccccc12)C(=O)O ? 1

Quick check: Mouse 2 Edema on atopic dermatitis-induced Nc/Nga mouse, item CC(=O)N[C@@H](CCC(=O)N[C@@H](C)C(=O)O)C(=O)O ? 1

Quick check: Mouse 2 Edema on atopic dermatitis-induced Nc/Nga mouse, item CCCCC(=O)N[C@@H](Cc1c[nH]c2ccccc12)C(=O)O ? 2

Quick check: Mouse 2 Edema on atopic dermatitis-induced Nc/Nga mouse, item CCCCCCCCCCC(=O)N[C@@H](Cc1c[nH]c2ccccc12)C(=O)O ? 1

Quick check: Mouse 2 Edema on atopic dermatitis-induced Nc/Nga mouse, item CCC(=O)N[C@@H](Cc1c[nH]c2ccccc12)C(=O)O ? 2

###

Overview of reported Mouse 2 Edema across a group of compounds:
System: atopic dermatitis-induced Nc/Nga mouse
Assay: SCORAD clinical skin score, DNFB-induced atopic dermatitis in Nc/Nga mouse
Format: in vivo
Set-up: key: 0 = no symptom, 1 = mild, 2 = moderate, 3 = severe
Details: Mouse 2; DNFB Nc/Nga; 0.1% topical day 15-21; graded per Example 4

# annotated cases, reported Mouse 2 Edema shown
compound	Mouse 2 Edema
CCCCCCCCCCCCCCCC(=O)N[C@@H](C)C(=O)O [N-palmitoyl L-alanine, N-palmitoyl-L-alanine]	1
CCCCCCCC/C=C\CCCCCCCCCCCC(=O)N[C@@H](Cc1c[nH]c2ccccc12)C(=O)O [N-(Z)-docos-13-enoyl L-tryptophan, N—(Z)-docos-13-enoyl-L-tryptophan]	1

Now let's try a different one.
Value lookup for Mouse 2 Edema; key = CCCCCCCC/C=C\CCCCCCCC(=O)N[C@@H](Cc1c[nH]c2ccccc12)C(=O)O [N-oleoyl-L-tryptophan] 1

###

Test system: atopic dermatitis-induced Balb/c mouse
Assay: SCORAD clinical skin score, DNFB-induced atopic dermatitis in Balb/c mouse
Format: in vivo
Details: Mouse 1; DNFB Balb/c; 0.1% topical day 22-28; grade 0-3
measurementKind: Mouse 1 Eschar
Respond numerically, and do not add a unit to the figure.

# annotated cases, reported Mouse 1 Eschar shown
> print(dat)
            structuresmilesstring  measurementkind  result
1          CC(=O)N[C@@H](C)C(=O)O   Mouse 1 Eschar       1
2  CC[C@H](C)[C@H](NC(C)=O)C(=O)O   Mouse 1 Eschar       3
3    CC(=O)N[C@@H](CC(N)=O)C(=O)O   Mouse 1 Eschar       2
4       CC(=O)N[C@H](C(=O)O)C(C)C   Mouse 1 Eschar       2

Value lookup for Mouse 1 Eschar; key = CC(=O)N[C@H](C(=O)O)[C@@H](C)O 1
